target: HA of virus A/Brisbane/59/2007 (H1N1) (influenza A virus (H1N1)); assay: cell-based or functional assay
measured metric: Neutralization titer SK50

-- ask Complete the entry with Neutralization titer SK50 for CR8049 (antibody, V domains shown) VH: QVTLKESGPVLVKPKETLTLTCTVSGFSLSNTRMGVSWIRQPPGKALEWLAHIFSNDETSYRTSLKRRLTISQDISKSQVVLSMTNVDPADTATYFCARIGSGYESSAYSTWLDP VL: QVQLQQWGAGLLKPSETLSLTCAVYGGSFTDHYWSWIRQSPGKGLEWIGEVVHSGDTNYTPSLRNRVSISVDSSKNQFSLRLGSVTAADTAVYYCARGRNVAVVGAIQRHYDY
-- reply > 40 µg/mL

-- ask Name the recorded Neutralization titer SK50 of the item CR8017 (antibody, V domains shown) VH: EVQLVETGGDLVQPGGSLRLSCSASEFSFSSYWMSWVRQAPGKGLEWVANMKQDGSEKYYVDSVKGRFTISRDNAKNSLYLQMNSLRGEDTAVYYCARGSCDDSWTGCHDAFDI VL: SSELTQDPAVSVALGQTVRITCQGDSLRSYYASWYQQKPGQAPVLVIYAKTNRPSGIPDRFSGSTSGNTASLTITGAQAEDEADYYCNSRDSSGNHVV in your answer.
-- reply > 40 µg/mL

-- ask Fill in Neutralization titer SK50 for record CR8039 (antibody, V domains shown) VH: QLQLQESGPGLVKPSETLSLTCTVSGGSIGSYYWSWIRQPPGKGLEWIGYIYYRGGTSYNPSLKSRVTISVDTSKSQFTLKLNSVTAADTAVYYCARKDWGSAAGSVWYFDL VL: QSALTQPPSASGSPGQSVTISCTGTSSDVGGYNYVSWYQQHPGKAPKLMIREVSKRPSGVPDRFSGSKSGNTASLTVSGLQAEDEAEYYCSSYAGSNNLI
-- reply > 40 µg/mL
